Quick list: Cellular viability (%) (−) microsome per entry.
- System: Human liver cancer cell line HepG2 cells
- TEST_NAME: Cellular viability, WST-8 assay, without or with human liver microsomes
- Assay type: cell-based
- MEASUREMENT_CONTEXT: at 135 μM, HepG2, without human liver microsomes
Give a bare numeral; the unit at % is implied.

Some compounds with recorded Cellular viability (%) (−) microsome:
{"columns": ["COMPOUND", "ASSAY_TARGET", "UNIT_TAG", "Cellular viability (%) (−) microsome"],
 "data": [
  ["CCOC(=O)c1nc(-c2ccc(C(F)(F)F)cc2)oc1-c1ccccc1 [Compound 31]", "Human liver cancer cell line HepG2 cells", "at %", 83],
  ["CCCNC(=O)c1nc(-c2ccc(C(F)(F)F)cc2)oc1-c1cccc(SC)c1 [Compound 292]", "Human liver cancer cell line HepG2 cells", "at %", 55],
  ["CNC(=O)c1nc(-c2ccc(C(F)(F)F)cc2)oc1-c1cccc(SC)c1 [Compound 290]", "Human liver cancer cell line HepG2 cells", "at %", 47]
]}

-- ask What does the data say about its Cellular viability (%) (−) microsome? Entry: CCOC(=O)c1nc(-c2ccc(SC)cc2)oc1-c1ccccc1 [Compound 90]
-- reply 53

====

- ASSAY_TARGET: IL33 and ST2 binding (Homo sapiens)
- Sequence (O95760 112-270 limits assumed): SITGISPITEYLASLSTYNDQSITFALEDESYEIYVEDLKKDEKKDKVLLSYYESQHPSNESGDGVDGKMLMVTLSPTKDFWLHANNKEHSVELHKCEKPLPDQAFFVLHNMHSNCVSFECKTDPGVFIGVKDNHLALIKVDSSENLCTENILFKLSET
- MEASUREMENT_CONTEXT: 100 µM
RECORDED_METRIC: inhibition (%)
Give a bare numeral; the unit % is implied.

Some compounds with recorded inhibition:
{"columns": ["SMILES_STR", "ASSAY_TARGET", "inhibition, %"],
 "data": [
  ["CN(C)CCNC(=O)c1nc(-c2ccc(OC(F)(F)F)cc2)oc1-c1ccccc1[N+](=O)[O-]", "IL33 and ST2 binding (Homo sapiens)", 4],
  ["CC(C)(C)OC(=O)N1CCN(CCNC(=O)c2nc(-c3ccc(C(F)(F)F)cc3)oc2-c2ccccc2[N+](=O)[O-])CC1", "IL33 and ST2 binding (Homo sapiens)", 50],
  ["CCNC(=O)c1nc(-c2ccc(C(F)(F)F)cc2)oc1-c1cccc(SC)c1", "IL33 and ST2 binding (Homo sapiens)", 111]
]}

Now for a further compound.
-- ask What does the data say about its inhibition? Entry: `CCOC(=O)c1coc(-c2ccc(C(F)(F)F)cc2)n1`
-- reply 110

====

- ASSAY_TARGET: IL33 and ST2 binding (Homo sapiens, UniProt O95760)
- MEASUREMENT_CONTEXT: 100 µM
Quick list: inhibition per entry.
Give a bare numeral; the unit % is implied.

-- ask GET /values?readout=inhibition&system=IL33 and ST2 binding (Homo sapiens, UniProt O95760)&item= `COc1ccc(-c2nc(C(=O)N3CCN(CCN(C)C)CC3)c(-c3ccccc3[N+](=O)[O-])o2)cc1`
-- reply 84

-- ask GET /values?readout=inhibition&system=IL33 and ST2 binding (Homo sapiens, UniProt O95760)&item= `CCOC(=O)c1nc(-c2ccc(C(F)(F)F)cc2)oc1-c1cccc(NC(C)=O)c1`
-- reply -2

-- ask GET /values?readout=inhibition&system=IL33 and ST2 binding (Homo sapiens, UniProt O95760)&item= `CN(C)CCNC(=O)c1nc(-c2ccc([N+](=O)[O-])cc2)oc1-c1ccccc1[N+](=O)[O-]`
-- reply 111

-- ask GET /values?readout=inhibition&system=IL33 and ST2 binding (Homo sapiens, UniProt O95760)&item= `CCOC(=O)c1nc(-c2ccc(C#N)cc2)oc1-c1ccccc1[N+](=O)[O-]`;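 note: plate ELISA with coated Flag-tagged human IL-33 and His-tagged human ST2, bound ST2 detected by anti-His HRP and TMB absorbance at 450 nm, 2 h compound incubation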
-- reply 89
